We begin with a simple list: items and their reported Bun.
- Tested on: hyperlipidemia rats
- MEASUREMENT PROTOCOL: Serum biochemical indicators in high-fat diet hyperlipidemia rats
- Assay type: in vivo, SD rats
- SETTINGS: serum, 20 mg/(kg d) by gastric gavage, 4 weeks, x ± s, n = 9
Express your answer as a number followed by its unit.

Look at this compound and give its reported Bun. CCC(C)(C)C(=O)O[C@H]1C[C@@H](C)C=C2C=C[C@H](C)[C@H](CC[C@@H]3C[C@@H](O)CC(=O)O3)[C@H]21 [Simvastatin, simvastatin, reference compound]
3.98 ± 0.43 mmol/L

# input compound: COc1cc2c3c(c1OC)-c1ccccc1CC3N(C(=O)c1ccccc1)CC2 (centres unmarked) ; wanted: its Bun
3.16 ± 0.17 mmol/L

Return reported Bun; argument: COc1cc2c3c(c1OC)-c1ccccc1CC3N(C(C)=O)CC2 (centres unmarked)
3.62 ± 0.15 mmol/L

Endpoint output: Bun of COc1cc2c3c(c1OC)-c1ccccc1CC3N(C(=O)c1ccc(C)cc1)CC2 (centres unmarked) . Value?
3.45 ± 0.51 mmol/L

State the recorded Bun for this entry: COc1cc2c3c(c1OC)-c1ccccc1CC3N(C(=O)c1ccccc1C)CC2 (centres unmarked)
3.56 ± 0.19 mmol/L

What value of Bun has been recorded for this entry: COc1cc2c3c(c1OC)-c1ccccc1CC3N(C(=O)c1ccc(F)cc1)CC2 (centres unmarked)
3.48 ± 0.24 mmol/L

Give its Bun value. Item: COc1ccc(C(=O)N2CCc3cc(OC)c(OC)c4c3C2Cc2ccccc2-4)cc1 (centres unmarked)
3.43 ± 0.27 mmol/L

Bun lookup needed for "COc1cc2c3c(c1OC)-c1ccccc1C[C@H]3N(C)CC2" , thanks.
3.27 ± 0.22 mmol/L

* * *

Measured AST (U/L), listed per entry.
- Tested on: hyperlipidemia rats
- MEASUREMENT PROTOCOL: Serum biochemical indicators in high-fat diet hyperlipidemia rats
- Type: in vivo, SD rats
- SETTINGS: serum, 20 mg/(kg d) by gastric gavage, 4 weeks, x ± s, n = 9
Please reply with the bare figure in U/L and do not write the unit itself.

Example results:
>>> value("COc1cc2c3c(c1OC)-c1ccccc1C[C@H]3N(C)CC2 [Nuciferine]")
6.43
>>> value("COc1cc2c3c(c1OC)-c1ccccc1CC3N(C(=O)c1ccccc1)CC2 (stereo not shown) [Compound 6a, Benzoylnuciferine]")
7.85
>>> value("COc1ccc(C(=O)N2CCc3cc(OC)c(OC)c4c3C2Cc2ccccc2-4)cc1 (stereo not shown) [Compound 6e, p-Methoxybenzoylnuciferine]")
7.65

Kindly consider the entry below.
What value of AST (U/L) has been recorded for this entry: COc1cc2c3c(c1OC)-c1ccccc1CC3N(C(C)=O)CC2 (stereo not shown) [Compound 6f, Acetylnuciferine]
7.74

* * *

Listing: MDA (nmol/mgprot) of selected compounds
- System: hyperlipidemia rats
- MEASUREMENT PROTOCOL: Liver tissue homogenate biochemical indicators in high-fat diet hyperlipidemia rats
- Format: in vivo, SD rats
- SETTINGS: liver tissue, 20 mg/(kg d) by gastric gavage, 4 weeks, x ± s, n = 9
Return type: number; implicit unit nmol/mgprot.

>>> value("COc1cc2c3c(c1OC)-c1ccccc1CC3N(C(=O)c1ccccc1C)CC2 (centres unmarked) [Compound 6d, o-Methylbenzoylnuciferine]")
0.95
>>> value("COc1cc2c3c(c1OC)-c1ccccc1CC3N(C(=O)c1ccc(F)cc1)CC2 (centres unmarked) [Compound 6b, p-Fluorobenzoylnuciferine]")
1.03
>>> value("COc1ccc(C(=O)N2CCc3cc(OC)c(OC)c4c3C2Cc2ccccc2-4)cc1 (centres unmarked) [Compound 6e, p-Methoxybenzoylnuciferine]")
1.02

I am curious: what MDA (nmol/mgprot) value has been reported for COc1cc2c3c(c1OC)-c1ccccc1CC3N(C(=O)c1ccc(C)cc1)CC2 (centres unmarked) [Compound 6c, p-Methylbenzoylnuciferine] ?
0.94
